Molecular target: MetQ (SSU1577) (Streptococcus suis, UniProt A0A0H3N1C6)
Construct: mature protein aa 31-283 without signal peptide (1-29) and lipobox Cys30; codon-optimised, pET16b, E. coli BL21(DE3); full-length precursor 283 aa
Sequence (A0A0H3N1C6 entry or part of it): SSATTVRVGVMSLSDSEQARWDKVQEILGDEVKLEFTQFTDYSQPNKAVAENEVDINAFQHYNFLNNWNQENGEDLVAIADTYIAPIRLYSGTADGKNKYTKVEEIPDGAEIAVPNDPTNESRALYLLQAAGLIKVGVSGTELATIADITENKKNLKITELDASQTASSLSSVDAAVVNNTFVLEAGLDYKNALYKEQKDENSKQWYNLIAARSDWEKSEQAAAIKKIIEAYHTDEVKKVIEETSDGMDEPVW
Experiment: isothermal titration calorimetry, one-site model
Conditions: PBS pH 7.3, 25 °C; 38.8 µM protein in cell, 200 µM ligand in syringe
QUANTITY_NAME: pKd
The read-out pKd is expressed as -log10 of concentration in moles per litre.

Q) For CSCC[C@H](N)C(=O)O [L-methionine] , write its pKd.
A) 5.15
